Reference for the values: paper PMC12040169

- EXPERIMENT: in vitro
- MEASUREMENT SETUP: human, hela cells, % viability
As shown below, each of these molecules has a reported viability at 28.5 h, 10 µM value.

| MOLECULE | UNIT STRING | viability at 28.5 h, 10 µM |
| --- | --- | --- |
| Nc1c(-c2cccc(C(F)(F)F)c2)cnc2cccnc12 [CBK081187] | % | 88.7 |
| CN(CC1(C)COC1)C(=O)c1cn2cc(Cl)ccc2n1 [CBK281721] | % | 109 |
| C=CCn1c(Cc2csc(NC(=O)c3ccc(C)c(F)c3)n2)n[nH]c1=S [CBK295307] | % | 80.6 |
| Nc1nc(CCC(=O)N2CCCC(c3cc(O)ncn3)C2)cs1 (stereo not shown) [CBK306976] | % | 89.5 |
| O=C(NC1CCCCC1)c1cc(S(=O)(=O)N2CCOCC2)ccc1Cl [CBK261662] | % | 96 |
| Cc1ccc(F)c(NS(=O)(=O)Cc2ccccc2)c1 [CBK038438] | % | 111 |
| COCCn1ccnc1C1CCN(C(=O)C(O)c2cccc(Cl)c2)CC1 (stereo not shown) [CBK306901] | % | 99.8 |
| Cc1cc(C)cc(Nc2c(-c3ccc(C(=O)O)cc3)nc3cnccn23)c1 [CBK287166] | % | 73.3 |
| O=c1oc2ccccc2n1C1CCN(Cc2nc3ccccc3n2Cc2ccccc2)CC1 [CBK286176] | % | 102 |
| Oc1cc(C(F)(F)F)nc(Nc2ccccc2)n1 [CBK000517] | % | 89.3 |

----------
- EXPERIMENT: in vitro
- MEASUREMENT SETUP: human, hela cells, % viability
MEASURE NAME: viability at 28.5 h, 10 µM (%)

| MOLECULE | EXPERIMENTAL RESULT |
| --- | --- |
| Cc1cc(C(=O)CSc2nncs2)c(C)n1C(C)c1ccccc1 (stereo not drawn) [CBK297934] | 86.8 |
| O=C(c1ccccn1)N1CCCC(n2cnc3cc(F)ccc32)C1 (stereo not drawn) [CBK284476] | 92.7 |
| O=C(NCC1COc2ccccc2O1)c1cc(-c2ccc(Cl)cc2)cnc1N1CCOCC1 (stereo not drawn) [CBK076286] | 94.9 |
| COc1cc([C@@H]2c3cc4c(cc3[C@H](O)[C@H]2C(=O)Nc2ccccc2)OCO4)cc(OC)c1OC [CBK200106] | 101 |
| O=C(C1CCC1)N1C2CCC1Cn1c(nc3ccccc3c1=O)C2 (stereo not drawn) [CBK284453] | 91.5 |
| COc1cccc2sc(NC(=O)c3ccc4occc4c3)nc12 [CBK149278] | 96.8 |
| O=C1CN(C(=O)NCC2COc3ccccc3O2)CCN1 (stereo not drawn) [CBK155847] | 88.3 |
| O=C(c1ccco1)N1CCN(c2ccc(/C=C/c3ccccc3)cn2)CC1 [CBK037701] | 98.7 |
| CC1CC(C)CN(CCCNS(=O)(=O)c2ccc3c(c2)oc(=O)n3C)C1 (stereo not drawn) [CBK268695] | 104 |
| O=C(NCc1nnc(-c2cccs2)o1)C(c1ccccc1)c1ccccc1 [CBK286294] | 92.6 |
| Cc1nc(-c2ccccc2)c(CC(=O)NC2CCCOC2)s1 (stereo not drawn) [CBK282586] | 93.4 |
| O=C(NC(c1ccc(F)cc1)c1cccs1)c1ccccn1 (stereo not drawn) [CBK295636] | 106 |
